# Tested on: Streptococcus pyogenes SSI-9
# protocol-description: Antibacterial activity assay of bead-derived peptides (three concentrations)
# Format: cell-based
# Design: key: +++: inhibition by the 640-fold diluted peptide solution; ++: inhibition by the 160-fold diluted solution; +: inhibition by the 40-fold diluted solution; -: no inhibition
# measurement-parameters: S. pyogenes, bead-derived peptide solution, three concentrations
Where a SMILES comes first, the peptide text is derived from it. [ ]: non-standard residue; d: D form. The star is where a group is joined. NHCH2CH2OH = OCCN*; For = O=C*
parameter-measured: antibacterial activity

>  <compound>
CC(C)C[C@@H](NC(=O)[C@H](C)NC(=O)[C@H](NC(=O)[C@H](C)NC(=O)CNC(=O)[C@@H](NC=O)C(C)C)C(C)C)C(=O)N[C@H](C(=O)N[C@@H](C(=O)N[C@@H](Cc1c[nH]c2ccccc12)C(=O)N[C@@H](C(=O)N[C@@H](Cc1c[nH]c2ccccc12)C(=O)N[C@H](CC(C)C)C(=O)N[C@@H](Cc1c[nH]c2ccccc12)C(=O)N[C@H](CC(C)C)C(=O)N[C@@H](Cc1c[nH]c2ccccc12)C(=O)NCCO)C(C)C)C(C)C)C(C)C [compound 5463] (For-VGA[dV]A[dL]V[dV]W[dV]W[dL]W[dL]W-NHCH2CH2OH)

>  <value-measured>
++

$$$$

====

Reported cell viability/% values for a set of compounds
# System: P388 mouse leukemia cells
# measurement-parameters: 92 h
Where a SMILES comes first, the peptide text is derived from it. [ ]: non-standard residue; d: D form. The star is where a group is joined. NHCH2CH2OH = OCCN*; For = O=C*
parameter-measured: cell viability/% (%)

>  <compound>
CNC(=O)C[C@@H](NC(=O)[C@@H](NC(=O)[C@@H](CC(C)C)NC(=O)[C@H](C)NC(=O)[C@@H](CC(C)C)NC(=O)[C@H](C)NC(=O)CNC(=O)[C@@H](NC=O)C(C)C)C(C)C)C(=O)N[C@@H](Cc1c[nH]c2ccccc12)C(=O)N[C@H](CC(C)C)C(=O)N[C@@H](Cc1c[nH]c2ccccc12)C(=O)N[C@H](CC(C)C)C(=O)N[C@@H](Cc1c[nH]c2ccccc12)C(=O)N[C@@H](C(=O)N[C@@H](Cc1c[nH]c2ccccc12)C(=O)NCCO)[C@H](C)O [compound 3929] (For-VGA[dL]A[dL]V[dD](NHMe)W[dL]W[dL]W[dT]W-NHCH2CH2OH)

>  <value-measured>
100.0

$$$$
>  <compound>
CC(C)C[C@@H](NC(=O)[C@H](Cc1c[nH]c2ccccc12)NC(=O)[C@H](NC(=O)[C@H](Cc1c[nH]c2ccccc12)NC(=O)[C@H](NC(=O)[C@H](Cc1c[nH]c2ccccc12)NC(=O)[C@H](NC(=O)[C@@H](NC(=O)[C@H](NC(=O)[C@H](C)NC(=O)[C@H](NC(=O)[C@H](C)NC(=O)CNC(=O)[C@@H](NC=O)C(C)C)C(C)C)[C@H](C)O)C(C)C)C(C)C)C(C)C)C(C)C)C(=O)N[C@@H](Cc1c[nH]c2ccccc12)C(=O)NCCO [compound 13062] (For-VGA[dV]A[dT]V[dV]W[dV]W[dV]W[dL]W-NHCH2CH2OH)

>  <value-measured>
92.8

$$$$
>  <compound>
CC(C)C[C@@H](NC(=O)[C@H](C)NC(=O)[C@H](NC(=O)[C@H](C)NC(=O)CNC(=O)[C@@H](NC=O)C(C)C)[C@H](C)O)C(=O)N[C@H](C(=O)N[C@H](CC(C)C)C(=O)N[C@@H](Cc1c[nH]c2ccccc12)C(=O)N[C@@H](C(=O)N[C@@H](Cc1c[nH]c2ccccc12)C(=O)N[C@@H](C(=O)N[C@@H](Cc1c[nH]c2ccccc12)C(=O)N[C@H](CC(C)C)C(=O)N[C@@H](Cc1c[nH]c2ccccc12)C(=O)NCCO)C(C)C)C(C)C)C(C)C [compound 2242] (For-VGA[dT]A[dL]V[dL]W[dV]W[dV]W[dL]W-NHCH2CH2OH)

>  <value-measured>
100.0

$$$$
>  <compound>
CNC(=O)C[C@@H](NC(=O)[C@@H](NC(=O)[C@@H](CC(C)C)NC(=O)[C@H](C)NC(=O)[C@H](NC(=O)[C@H](C)NC(=O)CNC(=O)[C@@H](NC=O)C(C)C)C(C)C)C(C)C)C(=O)N[C@@H](Cc1c[nH]c2ccccc12)C(=O)N[C@H](CC(C)C)C(=O)N[C@@H](Cc1c[nH]c2ccccc12)C(=O)N[C@H](CC(C)C)C(=O)N[C@@H](Cc1c[nH]c2ccccc12)C(=O)N[C@@H](C(=O)N[C@@H](Cc1c[nH]c2ccccc12)C(=O)NCCO)C(C)C [compound 6360] (For-VGA[dV]A[dL]V[dD](NHMe)W[dL]W[dL]W[dV]W-NHCH2CH2OH)

>  <value-measured>
67.2

$$$$
>  <compound>
CNC(=O)C[C@@H](NC(=O)[C@@H](NC(=O)[C@H](NC(=O)[C@H](C)NC(=O)[C@@H](CC(C)C)NC(=O)[C@H](C)NC(=O)CNC(=O)[C@@H](NC=O)C(C)C)C(C)C)C(C)C)C(=O)N[C@@H](Cc1c[nH]c2ccccc12)C(=O)N[C@@H](C(=O)N[C@@H](Cc1c[nH]c2ccccc12)C(=O)N[C@H](CC(C)C)C(=O)N[C@@H](Cc1c[nH]c2ccccc12)C(=O)N[C@@H](C(=O)N[C@@H](Cc1c[nH]c2ccccc12)C(=O)NCCO)C(C)C)C(C)C [compound 8732] (For-VGA[dL]A[dV]V[dD](NHMe)W[dV]W[dL]W[dV]W-NHCH2CH2OH)

>  <value-measured>
72.4

$$$$
>  <compound>
CC(C)C[C@@H](NC(=O)[C@H](C)NC(=O)CNC(=O)[C@@H](NC=O)C(C)C)C(=O)N[C@@H](C)C(=O)N[C@@H](C(=O)N[C@H](C(=O)N[C@H](CC(C)C)C(=O)N[C@@H](Cc1c[nH]c2ccccc12)C(=O)N[C@H](CC(C)C)C(=O)N[C@@H](Cc1c[nH]c2ccccc12)C(=O)N[C@@H](C(=O)N[C@@H](Cc1c[nH]c2ccccc12)C(=O)N[C@H](CC(C)C)C(=O)N[C@@H](Cc1c[nH]c2ccccc12)C(=O)NCCO)[C@H](C)O)C(C)C)C(C)C [compound 4128] (For-VGA[dL]A[dV]V[dL]W[dL]W[dT]W[dL]W-NHCH2CH2OH)

>  <value-measured>
100.0

$$$$
>  <compound>
CNC(=O)C[C@@H](NC(=O)[C@@H](NC(=O)[C@H](NC(=O)[C@H](C)NC(=O)[C@H](NC(=O)[C@H](C)NC(=O)CNC(=O)[C@@H](NC=O)C(C)C)C(C)C)C(C)C)C(C)C)C(=O)N[C@@H](Cc1c[nH]c2ccccc12)C(=O)N[C@H](CC(C)C)C(=O)N[C@@H](Cc1c[nH]c2ccccc12)C(=O)N[C@H](CC(C)C)C(=O)N[C@@H](Cc1c[nH]c2ccccc12)C(=O)N[C@H](CC(C)C)C(=O)N[C@@H](Cc1c[nH]c2ccccc12)C(=O)NCCO [compound 7437] (For-VGA[dV]A[dV]V[dD](NHMe)W[dL]W[dL]W[dL]W-NHCH2CH2OH)

>  <value-measured>
100.0

$$$$
>  <compound>
CC(C)C[C@@H](NC(=O)[C@H](C)NC(=O)[C@H](NC(=O)[C@H](C)NC(=O)CNC(=O)[C@@H](NC=O)C(C)C)[C@H](C)O)C(=O)N[C@H](C(=O)N[C@@H](C(=O)N[C@@H](Cc1c[nH]c2ccccc12)C(=O)N[C@@H](C(=O)N[C@@H](Cc1c[nH]c2ccccc12)C(=O)N[C@H](CC(C)C)C(=O)N[C@@H](Cc1c[nH]c2ccccc12)C(=O)N[C@@H](C(=O)N[C@@H](Cc1c[nH]c2ccccc12)C(=O)NCCO)C(C)C)C(C)C)C(C)C)C(C)C [compound 6857] (For-VGA[dT]A[dL]V[dV]W[dV]W[dL]W[dV]W-NHCH2CH2OH)

>  <value-measured>
100.0

$$$$

====

# measurement-parameters: cell viability/%
Where a SMILES comes first, the peptide text is derived from it. [ ]: non-standard residue; d: D form. The star is where a group is joined. NHCH2CH2OH = OCCN*; For = O=C*
Reported viability values for a set of compounds

>  <compound>
CC(C)C[C@@H](NC(=O)[C@H](C)NC(=O)CNC(=O)[C@@H](NC=O)C(C)C)C(=O)N[C@@H](C)C(=O)N[C@@H](C(=O)N[C@H](C(=O)N[C@@H](C(=O)N[C@@H](Cc1c[nH]c2ccccc12)C(=O)N[C@@H](C(=O)N[C@@H](Cc1c[nH]c2ccccc12)C(=O)N[C@@H](C(=O)N[C@@H](Cc1c[nH]c2ccccc12)C(=O)N[C@H](CC(C)C)C(=O)N[C@@H](Cc1c[nH]c2ccccc12)C(=O)NCCO)C(C)C)C(C)C)[C@H](C)O)C(C)C)C(C)C [compound 285] (For-VGA[dL]A[dV]V[dT]W[dV]W[dV]W[dL]W-NHCH2CH2OH)

>  <viability / %>
100

$$$$
>  <compound>
CC(C)C[C@@H](NC(=O)[C@H](C)NC(=O)[C@H](NC(=O)[C@H](C)NC(=O)CNC(=O)[C@@H](NC=O)C(C)C)C(C)C)C(=O)N[C@H](C(=O)N[C@H](CC(C)C)C(=O)N[C@@H](Cc1c[nH]c2ccccc12)C(=O)N[C@H](CC(C)C)C(=O)N[C@@H](Cc1c[nH]c2ccccc12)C(=O)N[C@@H](C(=O)N[C@@H](Cc1c[nH]c2ccccc12)C(=O)N[C@@H](C(=O)N[C@@H](Cc1c[nH]c2ccccc12)C(=O)NCCO)C(C)C)C(C)C)C(C)C [compound 9247] (For-VGA[dV]A[dL]V[dL]W[dL]W[dV]W[dV]W-NHCH2CH2OH)

>  <viability / %>
6

$$$$
>  <compound>
CNC(=O)C[C@@H](NC(=O)[C@@H](NC(=O)[C@@H](CC(C)C)NC(=O)[C@H](C)NC(=O)[C@@H](CC(C)C)NC(=O)[C@H](C)NC(=O)CNC(=O)[C@@H](NC=O)C(C)C)C(C)C)C(=O)N[C@@H](Cc1c[nH]c2ccccc12)C(=O)N[C@H](CC(C)C)C(=O)N[C@@H](Cc1c[nH]c2ccccc12)C(=O)N[C@H](CC(C)C)C(=O)N[C@@H](Cc1c[nH]c2ccccc12)C(=O)N[C@@H](C(=O)N[C@@H](Cc1c[nH]c2ccccc12)C(=O)NCCO)C(C)C [compound 4186] (For-VGA[dL]A[dL]V[dD](NHMe)W[dL]W[dL]W[dV]W-NHCH2CH2OH)

>  <viability / %>
98.7

$$$$
>  <compound>
CNC(=O)C[C@@H](NC(=O)[C@H](Cc1c[nH]c2ccccc12)NC(=O)[C@H](NC(=O)[C@H](Cc1c[nH]c2ccccc12)NC(=O)[C@@H](CC(C)C)NC(=O)[C@@H](NC(=O)[C@H](NC(=O)[C@H](C)NC(=O)[C@H](NC(=O)[C@H](C)NC(=O)CNC(=O)[C@@H](NC=O)C(C)C)C(C)C)C(C)C)C(C)C)C(C)C)C(=O)N[C@@H](Cc1c[nH]c2ccccc12)C(=O)N[C@@H](C(=O)N[C@@H](Cc1c[nH]c2ccccc12)C(=O)NCCO)C(C)C [compound 3369] (For-VGA[dV]A[dV]V[dL]W[dV]W[dD](NHMe)W[dV]W-NHCH2CH2OH)

>  <viability / %>
100

$$$$
